Target: Drosophila OR98a (Drosophila melanogaster)
Construct: expressed in transfected cells
Sequence (Q9VAZ3 whole entry): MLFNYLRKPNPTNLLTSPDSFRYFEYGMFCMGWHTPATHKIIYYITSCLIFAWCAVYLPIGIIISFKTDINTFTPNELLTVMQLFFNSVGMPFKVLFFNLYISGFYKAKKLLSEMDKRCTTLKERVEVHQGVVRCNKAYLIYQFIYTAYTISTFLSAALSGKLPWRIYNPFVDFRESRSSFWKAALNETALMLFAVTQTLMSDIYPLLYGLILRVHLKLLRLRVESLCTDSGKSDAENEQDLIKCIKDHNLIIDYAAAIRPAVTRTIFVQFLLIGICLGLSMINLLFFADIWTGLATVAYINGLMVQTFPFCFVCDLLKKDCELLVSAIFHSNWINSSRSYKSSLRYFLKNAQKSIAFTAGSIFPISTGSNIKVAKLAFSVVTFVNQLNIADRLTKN
Sequence (Q9VNB5 whole entry partner): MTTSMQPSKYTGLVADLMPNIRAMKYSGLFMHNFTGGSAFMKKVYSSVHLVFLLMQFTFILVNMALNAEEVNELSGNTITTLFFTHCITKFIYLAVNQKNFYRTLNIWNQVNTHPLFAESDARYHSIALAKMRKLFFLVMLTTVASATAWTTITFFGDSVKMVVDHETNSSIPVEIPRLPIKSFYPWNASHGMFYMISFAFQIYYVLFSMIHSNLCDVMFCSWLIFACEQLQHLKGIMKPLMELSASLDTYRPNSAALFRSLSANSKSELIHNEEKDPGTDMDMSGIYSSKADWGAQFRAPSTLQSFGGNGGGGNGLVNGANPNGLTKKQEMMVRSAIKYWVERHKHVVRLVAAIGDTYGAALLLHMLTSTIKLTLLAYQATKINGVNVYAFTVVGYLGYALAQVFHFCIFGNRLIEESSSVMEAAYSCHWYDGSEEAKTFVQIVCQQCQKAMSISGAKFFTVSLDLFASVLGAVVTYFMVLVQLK
Experiment: cell-based
Design: GCaMP6 calcium fluorescence in stable HEK293 OR+ORCO lines; peak dF normalised to 50 uM VUAA1 (=1)
Details: HEK293; relative to 50 uM VUAA1 response; below 0.05 set to 0; read-out: % activation
Answer each item with its documented activity at 100 µM.
Expressed in %, but write only the number.

Lookup: Given C=C(C)[C@H]1CC=C(C)CC1 [(R)-(+)-limonene] , respond with its activity at 100 µM.
Found: 0

Lookup: // Input: C=C(C)C1CCC2(C)OC2C1 (single isomer, unassigned; (+)) [(+)-limonene oxide] . Output its activity at 100 µM only.
Found: 0

Lookup: Return value of activity at 100 µM for input C=C1CC[C@@]23C[C@@H]1C(C)(C)[C@@H]2CC[C@H]3C [(+)-beta-cedrene] , no commentary.
Found: 6.08

Lookup: Please supply the value of reported activity at 100 µM for the item C=C1[C@H]2CC[C@@H]3[C@H]2C(C)(C)CCC[C@]13C [(+)-longifolene]
Found: 0

---

Molecular target: Drosophila OR85b (Drosophila melanogaster, UniProt Q9VHQ7)
Construct: expressed in transfected cells
Sequence (Q9VHQ7 whole entry, one chain of several): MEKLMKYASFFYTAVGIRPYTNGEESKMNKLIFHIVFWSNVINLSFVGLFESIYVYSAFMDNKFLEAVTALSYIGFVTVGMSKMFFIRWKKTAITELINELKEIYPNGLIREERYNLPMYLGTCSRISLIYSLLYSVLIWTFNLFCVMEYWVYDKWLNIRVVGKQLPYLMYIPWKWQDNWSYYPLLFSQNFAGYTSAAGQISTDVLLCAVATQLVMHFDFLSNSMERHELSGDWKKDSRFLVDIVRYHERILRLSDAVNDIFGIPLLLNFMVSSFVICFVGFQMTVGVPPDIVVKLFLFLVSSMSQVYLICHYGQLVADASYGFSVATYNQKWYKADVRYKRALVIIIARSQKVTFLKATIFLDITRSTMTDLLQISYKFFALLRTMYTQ
Assay: Calcium ion fluorescence (GCaMP6) assay, OR85b stable HEK293 cell line
Assay type: cell-based
Conditions: concentration 10; normalized fluorescence change, values below 0.05 threshold given as 0
parameter: DF norm AVERAGE OR85b
No unit in the answer, please; the number alone is enough.

Lookup: Fill in DF norm AVERAGE OR85b for record CC1=CCC[C@@]2(C)[C@@H]3CC[C@]12CC3(C)C [(−)-α-neoclovene]
Found: 0

Lookup: Annotate the molecule CCCCCCCO [1-heptanol] with its measured DF norm AVERAGE OR85b.
Found: 0

Lookup: Give recorded DF norm AVERAGE OR85b. Cc1ccc(C)c(C)c1 [1,2,4-trimethylbenzene]
Found: 0.0741

Lookup: For the molecule CCCCCC(=O)CC [3-octanone] , give its measured DF norm AVERAGE OR85b value.
Found: 0

Lookup: Give a short answer stating reported DF norm AVERAGE OR85b for CCCCCC(C)=O [2-heptanone] .
Found: 0.1962

Lookup: Report DF norm AVERAGE OR85b for C=C1[C@H]2CC[C@@H]3[C@H]2C(C)(C)CCC[C@]13C [(+)-longifolene]
Found: 0.1092

Lookup: Give reported DF norm AVERAGE OR85b value for CCCCCC(O)CC (stereo not shown) [3-octanol]
Found: 0

---

Target: Drosophila OR98a (Drosophila melanogaster)
Construct: expressed in transfected cells
Experiment: Calcium ion fluorescence (GCaMP6) assay, OR98a stable HEK293 cell line
Format: cell-based
Settings: ligand concentration 100 (unit not given); threshold 0.05, below shown as 0
parameter: DF norm AVERAGE OR98a
Returns: the value as a bare number; no unit string appended.

Lookup: For the compound CC1=CCC2CC1C2(C)C (stereo not shown) , give its reported DF norm AVERAGE OR98a.
Found: 0

Lookup: Dear colleague, please send me the reported DF norm AVERAGE OR98a for C=C1CCC2(C(C)C)CC12 (stereo not shown) when you can.
Found: 0

Lookup: Note down DF norm AVERAGE OR98a recorded for `CCCCCCCCCC=O`
Found: 0

Lookup: Provide one value: measured DF norm AVERAGE OR98a of `O=Cc1ccccc1`
Found: 0

Lookup: Identify DF norm AVERAGE OR98a associated with the compound CCOC(=O)c1ccccc1 [ethyl benzoate]
Found: 0.2048

Lookup: // Input: `OCCc1ccccc1` . Output its DF norm AVERAGE OR98a only.
Found: 0.122

Lookup: Kindly indicate its recorded DF norm AVERAGE OR98a. Item: `Cc1ccc(C(C)C)cc1`
Found: 0

Lookup: For CC(=O)OCC(C)C [isobutyl acetate] , write its DF norm AVERAGE OR98a.
Found: 0.0656

Lookup: Look up DF norm AVERAGE OR98a of `CC(=O)c1ccccc1` and report it.
Found: 0

Lookup: Give reported DF norm AVERAGE OR98a value for CCCC(=O)OCC [ethyl butyrate]
Found: 0.06596

Lookup: Identify measured DF norm AVERAGE OR98a corresponding to COC(=O)c1ccccc1 [methyl benzoate]
Found: 0.1166

Lookup: For the compound CCCCCC(=O)OCC [ethyl hexanoate] , report DF norm AVERAGE OR98a.
Found: 0

Lookup: Tell me its DF norm AVERAGE OR98a given CCOC(=O)CC [ethyl propionate] as the entry.
Found: 0

Lookup: Give the reported DF norm AVERAGE OR98a for this compound. COC(=O)c1ccccc1O [methyl salicylate]
Found: 0

Lookup: Indicate its recorded DF norm AVERAGE OR98a; the compound in question is `CC(C)=CCC/C(C)=C/CC/C(C)=C/CO`
Found: 0.09839

Lookup: Report DF norm AVERAGE OR98a for `CCc1ccccc1`
Found: 0

---

Molecular target: Drosophila OR85b (Drosophila melanogaster, UniProt Q9VHQ7)
Construct: expressed in transfected cells
Experiment: Calcium ion fluorescence (GCaMP6) assay, OR85b stable HEK293 cell line
Assay type: cell-based
Details: AVERAGE EC50, from average LOG EC50, N 5
parameter: pEC50
The value called pEC50 is obtained by taking minus log10 of the concentration in mol/L.

Lookup: Answer with the recorded pEC50 for the molecule listed here: `CCCCCC(C)=O`
Found: 4.16

---

Target: Drosophila OR71a (Drosophila melanogaster, UniProt Q9VUK5)
Construct: expressed in transfected cells
Sequence (Q9VUK5 whole entry, one chain of several): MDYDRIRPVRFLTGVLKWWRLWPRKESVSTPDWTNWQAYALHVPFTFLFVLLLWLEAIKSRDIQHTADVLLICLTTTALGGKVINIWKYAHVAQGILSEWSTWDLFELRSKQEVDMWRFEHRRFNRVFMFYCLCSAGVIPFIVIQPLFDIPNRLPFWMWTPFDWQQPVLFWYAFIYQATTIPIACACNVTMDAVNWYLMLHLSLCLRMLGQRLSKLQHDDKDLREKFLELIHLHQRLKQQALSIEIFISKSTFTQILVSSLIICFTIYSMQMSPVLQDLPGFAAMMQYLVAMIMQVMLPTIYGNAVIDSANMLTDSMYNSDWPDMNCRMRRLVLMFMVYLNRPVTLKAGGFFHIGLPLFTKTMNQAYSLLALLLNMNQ
Experiment: cell-based
Set-up: GCaMP6 calcium fluorescence in stable HEK293 OR+ORCO lines; peak dF normalised to 50 uM VUAA1 (=1)
Details: HEK293; relative to 50 uM VUAA1 response; below 0.05 set to 0; read-out: % activation
parameter: activity at 1 µM (%)
Return type: number; implicit unit %.

Lookup: State, for Drosophila OR71a (Drosophila melanogaster, UniProt Q9VUK5), measured activity at 1 µM of the molecule listed here: `OCCc1ccccc1`
Found: 8.62

Lookup: Quote Drosophila OR71a (Drosophila melanogaster, UniProt Q9VUK5) activity at 1 µM for entry C=C1CC[C@@]23C[C@@H]1C(C)(C)[C@@H]2CC[C@H]3C [(+)-beta-cedrene] .
Found: 0

Lookup: System Drosophila OR71a (Drosophila melanogaster, UniProt Q9VUK5). Read-out activity at 1 µM. Item C=C(C)C1CCC2(C)OC2C1 (single isomer, unassigned; (+)) [(+)-limonene oxide] . Report value.
Found: 0

Lookup: Recall the reported activity at 1 µM of C=C1[C@H]2CC[C@@H]3[C@H]2C(C)(C)CCC[C@]13C [(+)-longifolene] on Drosophila OR71a (Drosophila melanogaster, UniProt Q9VUK5) and write it down.
Found: 0

Lookup: Return reported activity at 1 µM for target or system Drosophila OR71a (Drosophila melanogaster, UniProt Q9VUK5), item C=C(C)[C@H]1CC=C(C)CC1 [(R)-(+)-limonene] .
Found: 0

---

Target: Drosophila OR71a (Drosophila melanogaster)
Construct: expressed in transfected cells
Test: Calcium ion fluorescence (GCaMP6) assay, OR71a stable HEK293 cell line
Format: cell-based
Conditions: concentration 1; normalized fluorescence change, values below 0.05 threshold given as 0
parameter: DF norm AVERAGE OR71a
Output: the number by itself.

Lookup: Give the measured DF norm AVERAGE OR71a for `CCCCCO`
Found: 0

Lookup: Supply recorded DF norm AVERAGE OR71a for C=C1CC/C=C(\C)CC[C@@H]2[C@@H]1CC2(C)C [(-)-trans-caryophyllene] here.
Found: 0

Lookup: Check the records and state DF norm AVERAGE OR71a for `CCCCC(C)=O`
Found: 0.08158

Lookup: Tell me its DF norm AVERAGE OR71a given C=C(C)C1CCC2(C)OC2C1 (single isomer, unassigned; (+)) [(+)-limonene oxide] as the entry.
Found: 0

Lookup: In one line, give reported DF norm AVERAGE OR71a of the entry CC1=CCC[C@@]2(C)[C@@H]3CC[C@]12CC3(C)C [(−)-α-neoclovene] .
Found: 0

Lookup: Respond only with DF norm AVERAGE OR71a recorded for `CCCCCCCO`
Found: 0

---

Target: Drosophila OR49b (Drosophila melanogaster, UniProt Q9V6H2)
Construct: expressed in transfected cells
Sequence (Q9V6H2 whole entry, one chain of several): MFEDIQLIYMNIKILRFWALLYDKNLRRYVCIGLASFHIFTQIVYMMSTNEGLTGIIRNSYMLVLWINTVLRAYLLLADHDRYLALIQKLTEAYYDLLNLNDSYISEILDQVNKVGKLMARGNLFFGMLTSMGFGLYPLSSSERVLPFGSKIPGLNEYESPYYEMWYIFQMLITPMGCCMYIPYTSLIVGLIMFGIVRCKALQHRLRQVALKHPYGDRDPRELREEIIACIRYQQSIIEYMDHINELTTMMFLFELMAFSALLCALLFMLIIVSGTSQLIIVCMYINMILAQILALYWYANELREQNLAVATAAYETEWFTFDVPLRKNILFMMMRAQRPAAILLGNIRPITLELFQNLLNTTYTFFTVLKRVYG
Experiment: cell-based
Settings: HEK293; 1 μM VOC; 50 μM VUAA1 = 1; read-out: OR49b Average response (VUAA1-normalized)
parameter: activation at 1 µM (%)
The reply should contain only the number, in %.

Lookup: For the compound `Cc1ccccc1C` , give its measured activation at 1 µM value.
Found: 0

Lookup: Return activation at 1 µM (reported value) for this compound: `CC(=O)c1ccccc1`
Found: 0

Lookup: Assign activation at 1 µM to the following record: `Cc1cccc(O)c1`
Found: 0

Lookup: Give the value of activation at 1 µM reported for the following: `O=Cc1ccccc1`
Found: 0

Lookup: Given `Cc1cccc(C)c1` , respond with its activation at 1 µM.
Found: 0

Lookup: Return value of activation at 1 µM for input `Cc1ccc(C)cc1` , no commentary.
Found: 0

Lookup: Return activation at 1 µM (reported value) for this compound: CC(=O)OCCC(C)C [isopentyl acetate]
Found: 0

Lookup: Identify measured activation at 1 µM associated with COC(=O)c1ccccc1O [methyl salicylate]
Found: 3

Lookup: For `Cc1ccccc1` , write its activation at 1 µM.
Found: 0

Lookup: Output activation at 1 µM of `Cc1ccc(C)c(C)c1`
Found: 0

Lookup: Identify measured activation at 1 µM corresponding to `Cc1ccc(O)cc1`
Found: 3
